Just for reference, the Kinase Knowledgebase extract (Sharma et al. 2016) is where these values come from.

molecular target: CDK2 (human) (UniProt P24941); test: Enzyme Assay
REPORTED_PROPERTY: IC50 (nM)
Answer in nM, number only, no unit symbol.

Query: Reported IC50 for CDK2 (human) (UniProt P24941), given COCCCNS(=O)(=O)c1ccc(Nc2nccc(-c3cnc4ccccn34)n2)cc1 ?
Response: 34

====

// endpoint IC50 / system EGFR (UniProt P00533)
Numbered stars: 1 amine (or outer) side, 2 acyl side, 3 side chain; on linkers, the order of the positions; unused ones are H or OH. Square brackets hold non-standard residues; d marks the D form. Peptide text beside a SMILES is read from it. ξ: configuration not given here. X1 = CC(=O)C(=O)CCc1ccc(CC(N[*:1])C(=O)[*:2])cc1; X2 = O=CC(=O)CCc1ccc(CC(N[*:1])C(=O)[*:2])cc1; pY = N[C@@H](Cc1ccc(OP(=O)(O)O)cc1)C(=O)O; Ile(3ξ) = CCC(C)[C@H](N)C(=O)O

[
  {
    "COMPOUND": "CCC(C)[C@H](NC(=O)[C@H](CCC(=O)O)NC(=O)[C@H](CCC(=O)O)NC(=O)[C@H](Cc1ccc(OP(=O)(O)O)cc1)NC(C)=O)C(=O)N[C@@H](CCC(=O)O)C(=O)O (stereo partly drawn) (Ac-[pY]EE[Ile(3ξ)]E-OH)",
    "REPORTED_VALUE": "≤ 0.5 µM"
  }
]

Query: Reported IC50 for EGFR (UniProt P00533), given CCC(C)[C@H](NC(=O)[C@H](CCC(=O)O)NC(=O)[C@H](CCC(=O)O)NC(=O)C(Cc1ccc(CCC(=O)C=O)cc1)NC(C)=O)C(=O)N[C@@H](CCC(=O)O)C(=O)O (stereo partly drawn) (Ac-[X2]EE[Ile(3ξ)]E-OH) ?
Response: ≤ 185 µM

Query: Reported IC50 for EGFR (UniProt P00533), given CCC(C)[C@H](NC(=O)[C@H](CCC(=O)O)NC(=O)[C@H](CCC(=O)O)NC(=O)C(Cc1ccc(CCC(=O)C(C)=O)cc1)NC(C)=O)C(=O)N[C@@H](CCC(=O)O)C(=O)O (stereo partly drawn) (Ac-[X1]EE[Ile(3ξ)]E-OH) ?
Response: ≤ 260 µM

====

biological target: EGFR (human) (UniProt P00533)
Sequence (P00533 whole entry, looked up): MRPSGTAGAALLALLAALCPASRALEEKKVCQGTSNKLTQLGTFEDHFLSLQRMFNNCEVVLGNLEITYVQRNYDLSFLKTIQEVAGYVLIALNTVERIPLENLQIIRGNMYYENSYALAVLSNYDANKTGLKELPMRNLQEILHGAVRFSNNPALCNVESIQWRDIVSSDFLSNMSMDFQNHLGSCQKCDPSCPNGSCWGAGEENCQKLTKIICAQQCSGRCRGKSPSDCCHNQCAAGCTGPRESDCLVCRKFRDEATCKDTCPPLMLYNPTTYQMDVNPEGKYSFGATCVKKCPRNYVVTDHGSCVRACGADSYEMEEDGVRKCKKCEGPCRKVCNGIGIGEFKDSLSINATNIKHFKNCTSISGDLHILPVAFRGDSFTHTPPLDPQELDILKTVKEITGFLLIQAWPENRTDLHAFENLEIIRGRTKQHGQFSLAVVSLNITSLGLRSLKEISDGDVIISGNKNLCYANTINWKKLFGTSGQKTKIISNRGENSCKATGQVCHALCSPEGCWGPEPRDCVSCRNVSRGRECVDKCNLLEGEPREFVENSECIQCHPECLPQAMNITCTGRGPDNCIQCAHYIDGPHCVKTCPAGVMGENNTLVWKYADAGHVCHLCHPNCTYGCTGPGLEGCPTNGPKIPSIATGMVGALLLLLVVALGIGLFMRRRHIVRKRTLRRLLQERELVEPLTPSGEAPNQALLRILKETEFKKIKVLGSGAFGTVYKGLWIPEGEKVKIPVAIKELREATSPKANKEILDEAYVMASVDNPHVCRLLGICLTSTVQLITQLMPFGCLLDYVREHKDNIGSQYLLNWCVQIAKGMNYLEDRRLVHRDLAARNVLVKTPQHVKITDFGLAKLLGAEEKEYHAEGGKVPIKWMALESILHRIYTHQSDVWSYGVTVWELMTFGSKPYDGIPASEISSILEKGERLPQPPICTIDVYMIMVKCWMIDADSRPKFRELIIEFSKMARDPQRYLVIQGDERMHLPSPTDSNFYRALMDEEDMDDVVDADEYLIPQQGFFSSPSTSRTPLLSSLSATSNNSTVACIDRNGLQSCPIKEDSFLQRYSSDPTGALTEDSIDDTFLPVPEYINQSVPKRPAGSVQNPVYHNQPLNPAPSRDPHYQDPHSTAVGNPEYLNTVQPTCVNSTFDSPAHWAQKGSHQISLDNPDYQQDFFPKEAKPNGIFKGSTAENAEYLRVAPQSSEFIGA
In this section we review reported IC50 values for a set of compounds.
Your answer should be a number followed by the unit of measure.

Solved entries (count: 5):
[
  {
    "ENTRY_SMILES": "O=C(Nc1ccc(CN2CCCCC2)cc1)c1sc2ncnc3c2c1NC(=O)N3c1ccc(Cc2ccccc2)cc1",
    "IC50": "110 nM"
  },
  {
    "ENTRY_SMILES": "CC(C)(C)OC(=O)NCCCNC(=O)c1sc2ncnc3c2c1NC(=O)N3c1ccc2c(ccn2Cc2cccc(F)c2)c1",
    "IC50": "346 nM"
  },
  {
    "ENTRY_SMILES": "CC(C)(C)OC(=O)N1CCC(Cc2ccc(NC(=O)c3sc4ncnc5c4c3NC(=O)N5c3ccc4c(ccn4Cc4cccc(F)c4)c3)cc2)CC1",
    "IC50": "168 nM"
  },
  {
    "ENTRY_SMILES": "C[C@@H]1CN(Cc2ccc(NC(=O)c3sc4ncnc5c4c3NC(=O)N5c3ccc(Oc4ccccc4)cc3)cc2)C[C@H](C)O1",
    "IC50": "31 nM"
  },
  {
    "ENTRY_SMILES": "O=C(Nc1ccc(CNC[C@@H]2CCCO2)cc1)c1sc2ncnc3c2c1NC(=O)N3c1ccc(F)c(Cl)c1",
    "IC50": "44 nM"
  }
]

Query: Reported IC50 for EGFR (human) (UniProt P00533), given O=C(O)c1sc2ncnc3c2c1NC(=O)N3c1ccc(F)c(Cl)c1 ?
Response: 1700 nM

Query: Reported IC50 for EGFR (human) (UniProt P00533), given O=C(Nc1ccc(CN2CCOCC2)cc1)c1sc2ncnc3c2c1NC(=O)N3c1ccc(F)cc1Cl ?
Response: 23 nM

Query: Reported IC50 for EGFR (human) (UniProt P00533), given N#Cc1ccc(NC(=O)c2sc3ncnc4c3c2NC(=O)N4c2ccc(F)c(Cl)c2)cn1 ?
Response: 116 nM
